Molecular target: GHSR1a (Homo sapiens, UniProt Q92847)
Sequence (Q92847 whole entry): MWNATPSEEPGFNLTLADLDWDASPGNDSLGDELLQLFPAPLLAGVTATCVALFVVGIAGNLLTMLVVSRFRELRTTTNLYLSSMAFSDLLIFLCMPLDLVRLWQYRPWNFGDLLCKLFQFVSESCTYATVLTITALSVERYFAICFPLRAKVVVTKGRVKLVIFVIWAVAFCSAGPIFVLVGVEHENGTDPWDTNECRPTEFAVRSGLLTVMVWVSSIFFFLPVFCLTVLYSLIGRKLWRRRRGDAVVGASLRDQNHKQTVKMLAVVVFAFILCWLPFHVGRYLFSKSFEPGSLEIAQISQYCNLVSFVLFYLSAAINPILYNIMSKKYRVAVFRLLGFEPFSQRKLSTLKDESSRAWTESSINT
Assay: Calcium FLIPR assay, GHSR-1a antagonism (reduction of ghrelin response)
Conditions: HEK293/GHSR1a cells, ghrelin 10 nM
property: IC50 (nM)

- CCC(NC(=O)N(C)C1CCN(C)CC1)c1ccc(-c2cncc(F)n2)c(Cl)c1Cl (stereo not shown): 3
- CC(NC(=O)N(C)C1CCN(C)CC1)c1ccc(-c2cccs2)c2ccccc12 (stereo not shown): 32
- COCCn1cc(-c2ccc(C(C)NC(=O)N(C)C3CCN(C)CC3)c(Cl)c2Cl)cn1 (stereo not shown): 309
- CC(NC(=O)N(C)C1CCN(C)CC1)c1ccc(-c2cnc(N)nc2)c(Cl)c1Cl (stereo not shown): 162
- CCC(NC(=O)N(C)C1CCN(C)C1)c1ccc(-c2cnccn2)c(Cl)c1Cl (stereo not shown): 10
- CCCN(C(=O)NC(C)c1ccc(-c2cnccn2)c(Cl)c1Cl)C1CCN(C)CC1 (stereo not shown): 35
- CC(NC(=O)N(C)C1CCN(C)CC1)c1ccc(-c2cncc(/C=N/O)c2)c(Cl)c1Cl (stereo not shown): 541
- Cc1cc(-c2ccc(C(C)NC(=O)N(C)C3CCN(C)CC3)c(Cl)c2Cl)ncn1 (stereo not shown): 674
- CC(NC(=O)N(C)C1CCN(C)CC1)c1ccc(-c2ccoc2)c(Cl)c1Cl (stereo not shown): 8
- CC(NC(=O)N(C)C1CCN(C)CC1)c1ccc(-c2cnn(CCO)c2)c(Cl)c1Cl (stereo not shown): 197
- CC(NC(=O)N(C)C1CCN(C)CC1)c1ccc(-c2cncc(CO)c2)c(Cl)c1Cl (stereo not shown): 90
- CC(NC(=O)C(C)N1CCN(C)CC1)c1ccc(-c2cnccn2)c(Cl)c1Cl (stereo not shown): 1500
- CC(NC(=O)N(C)C1CCN(C)CC1)c1ccc(-n2ccnn2)c(Cl)c1Cl (stereo not shown): 28
- CC(NC(=O)N(C)C1CCN(C)CC1)c1ccc(I)c(Cl)c1Cl (stereo not shown): 3
- CC(NC(=O)N(C)C1CCN(C)CC1)c1ccc(-c2cnccn2)c(Cl)c1Cl (stereo not shown): 7

Hey, just so you know, these numbers are from patent US9546157B2.
